# TARGET DESC: T1, human TIGIT over-expressed on cells (human, UniProt Q495A1 22-244)
# T1 sequence: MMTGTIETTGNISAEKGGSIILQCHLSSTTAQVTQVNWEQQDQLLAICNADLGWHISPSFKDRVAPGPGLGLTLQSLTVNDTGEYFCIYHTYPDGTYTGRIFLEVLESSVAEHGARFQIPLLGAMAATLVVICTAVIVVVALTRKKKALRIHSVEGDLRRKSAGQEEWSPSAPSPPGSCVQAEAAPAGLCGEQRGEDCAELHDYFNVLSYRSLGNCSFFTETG
# MEASUREMENT NOTES: cell-based or functional assay
MEASUREMENT TYPE: IL-2 secretion in T cell activation, Bottom (best-fit)
Numbers only.

BINDER	OBSERVED RESULT
100C4E7D11 chimeric (antibody, V domains shown, also called 100C4 Chimeric) VH: EVMLVESGGGLVKPGGSLKLSCAASGFTFSFYTMSWVRQTPEKRLEWVATISSGGGSTYYSDSVKGRFTISRDNAKNNLYLQMTSLRSEDTALYYCSRSLPVDYWGQGTTLTVSS VL: QIVLTQSPAIMSASLGERVTMTCTASSSVSSTYLHWYQQKPGSSPKLWIYSTSNLASGVPARFSGSGSGTSYSLTISSMEAEDAATYYCHLYHHSPYTFGGGTKLEIK	247
64G1E9B4VH1.M1_VL1.M1 (antibody, human IgG1, V domains shown, Humanized antibody, variable domains fused with the constant region of human IgG1; also called 64G1VH1.M1_VL1.M1) VH: EVQLVQSGAEVKKPGSSVKVSCKASGYTFTEHVIHWVRQAPGQGLEWMGGFNPNHGGTIYNQIFRGRVTITADKSTSTAYMELSSLRSEDTAVYYCARAAKLLFAMDYWGQGTTVTVSS VL: DIQMTQSPSSLSASVGDRVTITCRASQHVSNAVVWYQQKPGKAPKLLIYSPSYRFTGVPSRFSGSGSGTDFTLTISSLQPEDFATYYCQQHYSTPWTFGGGTKVEIK	209

Give measured IL-2 secretion in T cell activation, Bottom (best-fit) for every item shown.
1. 64G1E9B4VH1_VL1.M1 (antibody, human IgG1, V domains shown, Humanized antibody, variable domains fused with the constant region of human IgG1; also called 64G1VH1_VL1.M1) VH: EVQLVQSGAEVKKPGSSVKVSCKASGYTFTEHVIHWVRQAPGQGLEWMGGFNPNHDGTIYNQIFRGRVTITADKSTSTAYMELSSLRSEDTAVYYCARAAKLLFAMDYWGQGTTVTVSS VL: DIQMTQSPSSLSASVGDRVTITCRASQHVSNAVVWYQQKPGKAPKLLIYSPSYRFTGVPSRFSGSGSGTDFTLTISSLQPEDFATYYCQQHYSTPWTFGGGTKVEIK
2. 100C4E7D11VH1_VL1 (antibody, V domains shown, Humanized antibody, variable domains fused with the constant region of human IgG1; also called 100C4VH1_VL1) VH: EVQLVESGGGLVKPGGSLRLSCAASGFTFSFYTMSWVRQAPGKGLEWVSTISSGGGSTYYSDSVKGRFTISRDNAKNSLYLQMNSLRAEDTAVYYCARSLPVDYWGQGTTVTVSS VL: EIVLTQSPGTLSLSPGERATLSCTASSSVSSTYLHWYQQKPGQAPRLLIYSTSNLASGIPDRFSGSGSGTDFTLTISRLEPEDFAVYYCHLYHHSPYTFGGGTKVEIK

Reply:
1: 182; 2: 217
